Answer each item with its documented kon.
target entity: T1, Recombinant human CD4 (R&D Systems, Cat. 10327-CD) (human, UniProt P01730 26-390, limits assumed)
T1 construct: Bought soluble recombinant protein used as analyte at 100 nM; also called huCD4
assay comment: BLI (Octet Red384), non-clonal supernatant on AMC sensor, 100 nM human CD4, 1:1 local fit;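 note: hybridoma antibodies captured from supernatant, single CD4 concentration as analyte, association and dissociation phases fitted together, giving single-point kinetic estimates per supernatant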
State just the number; it will be interpreted in M⁻¹ s⁻¹.

So what's the measured kon for this one? 75110_08G08A (antibody, V domains shown, Non-clonal AlivaMab Mouse Kappa hybridoma supernatant, captured by anti-mouse IgG Fc (human V regions, mouse Fc)) VH: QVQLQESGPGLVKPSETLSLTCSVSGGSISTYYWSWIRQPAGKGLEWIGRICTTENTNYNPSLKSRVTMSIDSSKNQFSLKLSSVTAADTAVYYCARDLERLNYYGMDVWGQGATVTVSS VL: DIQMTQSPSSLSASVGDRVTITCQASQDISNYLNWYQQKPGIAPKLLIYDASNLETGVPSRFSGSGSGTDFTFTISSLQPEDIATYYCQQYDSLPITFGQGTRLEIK
280000

So what's the measured kon for this one? 75110_06G04A (antibody, V domains shown, Non-clonal AlivaMab Mouse Kappa hybridoma supernatant, captured by anti-mouse IgG Fc (human V regions, mouse Fc)) VH: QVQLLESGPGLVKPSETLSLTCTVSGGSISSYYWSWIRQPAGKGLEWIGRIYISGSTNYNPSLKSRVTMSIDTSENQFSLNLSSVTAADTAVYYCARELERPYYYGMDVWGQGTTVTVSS VL: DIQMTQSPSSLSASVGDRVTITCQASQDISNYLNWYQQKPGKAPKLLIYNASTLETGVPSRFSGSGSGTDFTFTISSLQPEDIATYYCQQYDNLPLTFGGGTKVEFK
75000

What does the data say about its kon? Entry: 75110_05E05A (antibody, V domains shown, Non-clonal AlivaMab Mouse Kappa hybridoma supernatant, captured by anti-mouse IgG Fc (human V regions, mouse Fc)) VH: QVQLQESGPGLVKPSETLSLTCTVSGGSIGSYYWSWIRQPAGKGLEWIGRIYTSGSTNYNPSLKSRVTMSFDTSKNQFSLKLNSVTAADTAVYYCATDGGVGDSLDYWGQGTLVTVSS VL: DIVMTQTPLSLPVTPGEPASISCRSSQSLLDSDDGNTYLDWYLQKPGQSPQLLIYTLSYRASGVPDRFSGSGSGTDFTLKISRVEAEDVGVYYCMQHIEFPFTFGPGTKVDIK
140000

Endpoint output: kon of 75110_08D24A (antibody, V domains shown, Non-clonal AlivaMab Mouse Kappa hybridoma supernatant, captured by anti-mouse IgG Fc (human V regions, mouse Fc)) VH: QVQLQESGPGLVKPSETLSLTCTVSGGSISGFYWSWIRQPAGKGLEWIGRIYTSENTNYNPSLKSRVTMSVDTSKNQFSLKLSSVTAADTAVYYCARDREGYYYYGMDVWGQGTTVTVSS VL: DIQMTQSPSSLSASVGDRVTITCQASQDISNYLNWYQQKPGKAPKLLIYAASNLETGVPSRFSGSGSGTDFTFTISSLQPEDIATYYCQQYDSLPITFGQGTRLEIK . Value?
170000

Fill blank: measured kon of the binder 75110_08F20A (antibody, V domains shown, Non-clonal AlivaMab Mouse Kappa hybridoma supernatant, captured by anti-mouse IgG Fc (human V regions, mouse Fc)) VH: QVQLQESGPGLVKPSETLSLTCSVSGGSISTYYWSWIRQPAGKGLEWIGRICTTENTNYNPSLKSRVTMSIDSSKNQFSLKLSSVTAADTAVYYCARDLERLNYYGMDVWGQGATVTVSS VL: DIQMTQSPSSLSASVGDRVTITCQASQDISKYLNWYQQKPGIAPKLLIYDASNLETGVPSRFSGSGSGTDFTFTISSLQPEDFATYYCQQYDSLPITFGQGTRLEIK is ____.
140000
